test system: Ipomoea hederaceae (IPOHE); assay: Pre-emergence biological efficacy, glasshouse, 1000 g/ha, evaluated after 13 days (100=total damage to plant; 0=no damage to plant); assay type: in vivo; conditions: Ipomoea, 312 h, rate 1,000 g/ha, read-out: Percentage damage caused to weed species, pre-emergence, IPOHE
quantity name: pest or weed control at 1000 g/ha
Note to self: number, then unit, no commentary.

Use these answered entries as a reference point.
{"compound": "O=C(O)c1nc(Cl)nc2[nH]ccc12", "pest or weed control at 1000 g/ha": "0%"}
{"compound": "COc1c(Cl)ccc(-c2nc(C(=O)O)c3c(C)cn(Cc4ccc(C(F)(F)F)o4)c3n2)c1F", "pest or weed control at 1000 g/ha": "10%"}
{"compound": "COc1c(Cl)ccc(-c2nc(C(=O)O)c3cc[nH]c3n2)c1F", "pest or weed control at 1000 g/ha": "0%"}

Give pest or weed control at 1000 g/ha for COC(=O)c1nc(C2CC2)nc2c1Nc1ccccc1N2
0%
